system: rodent lifetime carcinogenesis bioassay, tumor incidence TD50; test: carcinogenic potency in animals, long-term in vivo studies, CPDB compilation (AID 1745844); settings: rat; strain Fischer 344; females; in drinking water; site: multiple organs; lesion: mononuclear-cell leukemia; dosed 96 weeks; study length 97 weeks
ASSAY METRIC: TD50

Ask: Could you tell me which TD50 is on file for COc1cc(-c2ccc(N=Nc3c(S(=O)(=O)O)cc4cc(S(=O)(=O)O)cc(N)c4c3O)c(OC)c2)ccc1N=Nc1c(S(=O)(=O)O)cc2cc(S(=O)(=O)O)cc(N)c2c1O ?
Result: 50 mg/kg/day

----------
tested on: rodent lifetime carcinogenesis bioassay, tumor incidence TD50; assay: carcinogenic potency in animals, long-term in vivo studies, CPDB compilation (AID 1745844); settings: rat; strain Fischer 344; males; by gavage; site: liver; lesion: hemangiosarcoma; dosed 30 weeks; study length 55 weeks
ASSAY METRIC: TD50 (mg/kg/day)
Report only the number, with the unit mg/kg/day understood.

Ask: Could you tell me which TD50 is on file for CCN(C)N=O ?
Result: 0.12

----------
test system: rodent lifetime carcinogenesis bioassay, tumor incidence TD50; assay: carcinogenic potency in animals, long-term in vivo studies, CPDB compilation (AID 1745844); details: mouse; strain Swiss albino; males; in drinking water; site: lung; lesion: several types; types named in the paper; dosed 118 weeks; study length 118 weeks
ASSAY METRIC: TD50

Ask: Could you tell me which TD50 is on file for NNC(N)=O ?
Result: 833 mg/kg/day

----------
test system: rodent lifetime carcinogenesis bioassay, tumor incidence TD50; experiment: carcinogenic potency in animals, long-term in vivo studies, CPDB compilation (AID 1745844); conditions: mouse; strain B6C3F1; males; i.p.; site: brain; lesion: olfactory neuroblastoma + undifferentiated carcinoma; dosed 52 weeks; study length 85 weeks
ASSAY METRIC: TD50

Ask: Could you tell me which TD50 is on file for CNNCc1ccc(C(=O)NC(C)C)cc1 ?
Result: 4.51 mg/kg/day

----------
system: rodent lifetime carcinogenesis bioassay, tumor incidence TD50; assay: carcinogenic potency in animals, long-term in vivo studies, CPDB compilation (AID 1745844); settings: rat; strain Fischer 344; males; in feed; site: liver; lesion: hepatocellular carcinoma + neoplastic nodule; dosed 78 weeks; study length 104 weeks
ASSAY METRIC: TD50

Ask: Could you tell me which TD50 is on file for Cc1ccc2c(c1N)C(=O)c1ccccc1C2=O ?
Result: 39.9 mg/kg/day

----------
system: rodent lifetime carcinogenesis bioassay, tumor incidence TD50; test: carcinogenic potency in animals, long-term in vivo studies, CPDB compilation (AID 1745844); details: rat; strain Sprague-Dawley; females; by gavage; site: nasal cavity; lesion: carcinoma; dosed 104 weeks; study length 123 weeks
ASSAY METRIC: TD50 (mg/kg/day)
Report only the number, with the unit mg/kg/day understood.

Ask: Could you tell me which TD50 is on file for CCc1ccccc1 ?
Result: 18300

----------
system: rodent lifetime carcinogenesis bioassay, tumor incidence TD50; assay: carcinogenic potency in animals, long-term in vivo studies, CPDB compilation (AID 1745844); conditions: mouse; strain A; males; in drinking water; site: lung; lesion: alveolar-cell adenoma; dosed 72 weeks; study length 72 weeks
ASSAY METRIC: TD50 (mg/kg/day)
Report only the number, with the unit mg/kg/day understood.

Ask: Could you tell me which TD50 is on file for CN(C)N=O ?
Result: 0.177

----------
tested on: rodent lifetime carcinogenesis bioassay, tumor incidence TD50; test: carcinogenic potency in animals, long-term in vivo studies, CPDB compilation (AID 1745844); conditions: rat; strain Wistar; males; inhaled; site: liver; lesion: angioma; dosed 52 weeks; study length 127 weeks
ASSAY METRIC: TD50 (mg/kg/day)
Report only the number, with the unit mg/kg/day understood.

Ask: Value wanted: TD50 (rodent lifetime carcinogenesis bioassay, tumor incidence TD50) of entry C=CCl
Result: 0.654

----------
tested on: rodent lifetime carcinogenesis bioassay, tumor incidence TD50; assay: carcinogenic potency in animals, long-term in vivo studies, CPDB compilation (AID 1745844); details: mouse; strain B6C3F1; males; inhaled; site: lung; lesion: alveolar/bronchiolar adenoma; dosed 13 weeks; study length 104 weeks
ASSAY METRIC: TD50 (mg/kg/day)
Report only the number, with the unit mg/kg/day understood.

Ask: Could you tell me which TD50 is on file for C=CC=C ?
Result: 17.1

----------
system: rodent lifetime carcinogenesis bioassay, tumor incidence TD50; test: carcinogenic potency in animals, long-term in vivo studies, CPDB compilation (AID 1745844); details: rat; strain Fischer 344; females; by gavage; site: liver; lesion: hepatocellular carcinoma + neoplastic nodule; dosed 104 weeks; study length 105 weeks
ASSAY METRIC: TD50

Ask: Could you tell me which TD50 is on file for CCCC(Cl)CCCC(Cl)CCC(Cl)CCC(Cl)CCC(Cl)CCCC(Cl)CCC (stereo unspecified) ?
Result: 1140 mg/kg/day

----------
system: rodent lifetime carcinogenesis bioassay, tumor incidence TD50; experiment: carcinogenic potency in animals, long-term in vivo studies, CPDB compilation (AID 1745844); details: mouse; strain B6C3F1; females; in feed; site: liver; lesion: hepatocellular adenoma + hepatocellular carcinoma; dosed 80 weeks; study length 105 weeks
ASSAY METRIC: TD50

Ask: Could you tell me which TD50 is on file for Nc1ccc(N=Nc2ccccc2)c(N)n1 ?
Result: 71.1 mg/kg/day

----------
test system: rodent lifetime carcinogenesis bioassay, tumor incidence TD50; assay: carcinogenic potency in animals, long-term in vivo studies, CPDB compilation (AID 1745844); details: rat; strain Fischer 344; males; by gavage; site: kidney; lesion: tubule adenoma; dosed 38 weeks; study length 104 weeks
ASSAY METRIC: TD50 (mg/kg/day)
Report only the number, with the unit mg/kg/day understood.

Ask: Could you tell me which TD50 is on file for O=C1CCc2ccccc2O1 ?
Result: 310

----------
tested on: rodent lifetime carcinogenesis bioassay, tumor incidence TD50; experiment: carcinogenic potency in animals, long-term in vivo studies, CPDB compilation (AID 1745844); details: mouse; strain B6C3F1; females; in drinking water; site: lung; lesion: adenoma; dosed 96 weeks; study length 110 weeks
Active and inactive are the calls of the source. The rule behind the calls is not given here.
ASSAY METRIC: TD50

Ask: Value wanted: TD50 (rodent lifetime carcinogenesis bioassay, tumor incidence TD50) of entry CC1(C)[C@@H](O[C@H]2O[C@H](C(=O)O)[C@@H](O)[C@H](O)[C@H]2O[C@@H]2O[C@H](C(=O)O)[C@@H](O)[C@H](O)[C@H]2O)CC[C@]2(C)[C@H]3C(=O)C=C4[C@@H]5C[C@@](C)(C(=O)O)CC[C@]5(C)CC[C@@]4(C)[C@]3(C)CC[C@@H]12
Result: 14400 mg/kg/day (inactive)

----------
system: rodent lifetime carcinogenesis bioassay, tumor incidence TD50; experiment: carcinogenic potency in animals, long-term in vivo studies, CPDB compilation (AID 1745844); details: mouse; strain B6C3F1; males; in feed; site: lung; lesion: alveolar/bronchiolar adenoma + alveolar/bronchiolar carcinoma; dosed 101 weeks; study length 103 weeks
ASSAY METRIC: TD50 (mg/kg/day)
Report only the number, with the unit mg/kg/day understood.

Ask: Could you tell me which TD50 is on file for CCC1(c2ccccc2)C(=O)NCNC1=O ?
Result: 1760

----------
tested on: rodent lifetime carcinogenesis bioassay, tumor incidence TD50; assay: carcinogenic potency in animals, long-term in vivo studies, CPDB compilation (AID 1745844); settings: rat; strain Fischer 344; males; in feed; site: liver; lesion: hepatocellular adenoma + hepatoblastoma + hepatocellular carcinoma; dosed 66 weeks; study length 66 weeks
ASSAY METRIC: TD50 (mg/kg/day)
Report only the number, with the unit mg/kg/day understood.

Ask: Could you tell me which TD50 is on file for Nc1c(Br)cc(Br)c2c1C(=O)c1ccccc1C2=O ?
Result: 102

----------
tested on: rodent lifetime carcinogenesis bioassay, tumor incidence TD50; experiment: carcinogenic potency in animals, long-term in vivo studies, CPDB compilation (AID 1745844); settings: rat; strain Fischer 344; males; in feed; site: liver; lesion: hepatocellular carcinoma; dosed 52 weeks; study length 104 weeks
ASSAY METRIC: TD50

Ask: Could you tell me which TD50 is on file for Cc1cccc(Nc2cc(Cl)nc(SCC(=O)O)n2)c1C ?
Result: 26.8 mg/kg/day

----------
test system: rodent lifetime carcinogenesis bioassay, tumor incidence TD50; experiment: carcinogenic potency in animals, long-term in vivo studies, CPDB compilation (AID 1745844); conditions: mouse; strain B6C3F1; females; in feed; site: pituitary gland; lesion: adenoma, NOS + carcinoma; dosed 104 weeks; study length 105 weeks
ASSAY METRIC: TD50

Ask: Could you tell me which TD50 is on file for C[C@H]1CCCC(=O)CCC/C=C/c2cc(O)cc(O)c2C(=O)O1 ?
Result: 32.3 mg/kg/day

----------
test system: rodent lifetime carcinogenesis bioassay, tumor incidence TD50; experiment: carcinogenic potency in animals, long-term in vivo studies, CPDB compilation (AID 1745844); settings: rat; strain Fischer 344; females; in feed; site: any site (literature study); lesion: several types; types named in the paper; dosed 59 weeks; study length 104 weeks
ASSAY METRIC: TD50 (mg/kg/day)
Report only the number, with the unit mg/kg/day understood.

Ask: Could you tell me which TD50 is on file for CN(C)c1ccc(Cc2ccc(N(C)C)cc2)cc1 ?
Result: 41.7
